Give Kd for every item shown.
Molecular target: T1, Biotinylated human TNFRI (human, UniProt P19438 30-211, limits assumed, biotinylated (approx 1 biotin per molecule))
T1 sequence (looked up): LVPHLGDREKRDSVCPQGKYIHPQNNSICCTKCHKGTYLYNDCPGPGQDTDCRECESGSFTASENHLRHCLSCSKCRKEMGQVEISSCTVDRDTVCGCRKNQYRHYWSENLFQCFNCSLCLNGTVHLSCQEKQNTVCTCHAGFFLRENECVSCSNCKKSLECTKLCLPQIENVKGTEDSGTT
Experiment: SPR (Biacore), biotinylated human TNFRI on streptavidin chip, dAb injected; KD from mean kd/ka

Field request: Kd | item: TAR210-27 5K MAL PEG (other, 5K MAL-PEG on the C-terminal Cys (Ser120cys), For the limits of the entry see m36) VH: ASTEVQLLESGGGLVQPGGSLRLSCAASGFTFEWYWMGWVRQAPGKGLEWVSAISGSGGSTYYADSVKGRFTISRDNSKNTLYLQMNSLRAEDAAVYYCAKVKLGGGPNFGYRGQGTLVTVSC
122 nM

Quick check: Kd of TAR210-27 2 × 20K MAL PEG (other, 2 × 20K (40K branched) MAL-PEG on the C-terminal Cys (Ser120cys), For the limits of the entry see m36; also called 40K PEGylated monomer (TAR2-10-27)) VH: ASTEVQLLESGGGLVQPGGSLRLSCAASGFTFEWYWMGWVRQAPGKGLEWVSAISGSGGSTYYADSVKGRFTISRDNSKNTLYLQMNSLRAEDAAVYYCAKVKLGGGPNFGYRGQGTLVTVSC ?
69.2 nM
